# target: Broad substrate specificity ATP-binding cassette transporter ABCG2 (Homo sapiens, UniProt Q9UNQ0)
# Sequence (Q9UNQ0 whole entry): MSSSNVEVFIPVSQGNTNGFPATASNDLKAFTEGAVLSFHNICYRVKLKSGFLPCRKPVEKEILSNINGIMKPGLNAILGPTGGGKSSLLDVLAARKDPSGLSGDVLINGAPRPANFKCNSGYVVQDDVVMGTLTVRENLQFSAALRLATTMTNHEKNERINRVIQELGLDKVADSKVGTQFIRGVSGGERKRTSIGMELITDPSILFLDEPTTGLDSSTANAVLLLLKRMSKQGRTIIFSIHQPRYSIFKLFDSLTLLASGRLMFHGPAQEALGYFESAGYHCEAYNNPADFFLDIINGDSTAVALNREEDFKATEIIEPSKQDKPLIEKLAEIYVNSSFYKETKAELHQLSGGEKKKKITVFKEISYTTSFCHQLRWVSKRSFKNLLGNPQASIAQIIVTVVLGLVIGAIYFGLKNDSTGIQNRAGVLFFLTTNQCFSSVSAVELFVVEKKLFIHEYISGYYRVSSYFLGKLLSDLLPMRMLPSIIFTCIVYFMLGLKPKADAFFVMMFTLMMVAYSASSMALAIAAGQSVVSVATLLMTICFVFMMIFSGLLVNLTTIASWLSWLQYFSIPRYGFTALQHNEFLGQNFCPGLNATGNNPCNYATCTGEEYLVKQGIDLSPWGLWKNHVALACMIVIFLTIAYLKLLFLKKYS
# method: Activation of human ABCG2-mediated ATPase activity preincubated for 2 mins followed by ATP addition and measured after 20 mins by colorimetric assay
property label: EC50 (nM)

molecule	EC50, nM
COc1cc(CCNC2=NC(C#Cc3ccc(Cl)s3)=NC3=NC=NC32)ccc1O (configuration not stated)	13.2
Fc1ccc(C#CC2=NC3=NC=NC3C(NCc3cccc(Cl)c3)=N2)cc1F (configuration not stated)	50
CNC(=O)C12CC1[C@@H](n1cnc3c(N[C@H]4C[C@@H]4c4ccc(F)c(F)c4)nc(C#Cc4cccc(F)c4)nc31)[C@H](O)[C@@H]2O (single isomer, unassigned)	14
CNC(=O)C12CC1[C@@H](n1cnc3c(NC4CC4c4ccc(F)c(F)c4)nc(C#Cc4cccc(F)c4)nc31)[C@H](O)[C@@H]2O (single isomer, unassigned)	16

I. CCOC(=O)C12CC1[C@@H](n1ccc3c(NCCCc4ccc(OC)c(O)c4)nc(C#Cc4ccc(Cl)s4)nc31)[C@H](O)[C@@H]2O (single isomer, unassigned)
II. CNC(=O)C1O[C@@H](n2cnc3c(NCc4cccc(I)c4)ncnc32)[C@H](O)[C@@H]1O (single isomer, unassigned)
III. CNC(=O)C12CC1[C@@H](n1cnc3c(N[C@@H]4C[C@H]4c4ccc(F)c(F)c4)nc(C#Cc4cccc(F)c4)nc31)[C@H](O)[C@@H]2O (single isomer, unassigned)
# input Order the records by EC50, with each subsequent value no larger than the one before. Could you list the labels in the order requested?
# output II, I, III

====

# target: Broad substrate specificity ATP-binding cassette transporter ABCG2 (Homo sapiens, UniProt Q9UNQ0)
# method: Activation of human ABCG2-mediated ATPase activity preincubated for 2 mins followed by ATP addition and measured after 20 mins by colorimetric assay
property label: EC50 (nM)

1. CCOC(=O)C12CC1[C@@H](n1ccc3c(NCCc4ccccc4)nc(C#Cc4ccccc4)nc31)[C@H](O)[C@@H]2O (single isomer, unassigned)
2. CNC(=O)[C@H]1O[C@@H](n2cnc3c(NCc4cccc(I)c4)nc(Cl)nc32)[C@H](O)[C@@H]1O [NAMODENOSON]
3. CNC(=O)C12CC1[C@@H](n1cnc3c(NCc4cccc(Cl)c4)nc(C#Cc4ccc(F)c(F)c4)nc31)[C@H](O)[C@@H]2O (single isomer, unassigned)
# input Order these molecules (above) by their EC50, from the smallest value upward. Answer with the labels in sequence, matching the requested order.
# output 1, 3, 2
